Attribution: the supplement of paper PMC6757056

# normalized RNA/DNA level without ligand (log10) per record follows
B1: library; a variant is named by its letters at N, in order (parent)
chain: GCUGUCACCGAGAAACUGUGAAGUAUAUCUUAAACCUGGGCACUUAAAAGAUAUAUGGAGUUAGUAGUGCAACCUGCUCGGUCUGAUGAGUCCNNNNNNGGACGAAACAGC

# Variants of: B1
# protocol.details: normalized RNA/DNA level without ligand (relative to sTRSVctl = 100) (log10 (% of sTRSVctl)); HEK293T; ligand: cyclic di-GMP (c-di-GMP-II aptamer); higher = less ribozyme self-cleavage, higher mRNA level
# condition.parameters: reporter: mCherry (pCS4076), ligand present: no
When you answer, write just the number.

Example cases with answers are listed next.
GGUUUU : 1.7
CCGGCA : 1.7
AAUUGA : 1.49
AUAUGC : 1.67
UUGAAU : 1.66

Give the measured normalized RNA/DNA level without ligand (log10) of "AUACCU" .
1.7

Give the measured normalized RNA/DNA level without ligand (log10) of "UGACGC" .
1.73

Give the measured normalized RNA/DNA level without ligand (log10) of "GUCACG" .
1.64

Give the measured normalized RNA/DNA level without ligand (log10) of "UCAUUC" .
1.69

Give the measured normalized RNA/DNA level without ligand (log10) of "CAGCAU" .
1.56

Give the measured normalized RNA/DNA level without ligand (log10) of "CGCACA" .
1.41

Give the measured normalized RNA/DNA level without ligand (log10) of "GUGGAC" .
1.55

Give the measured normalized RNA/DNA level without ligand (log10) of "ACUUGU" .
1.67
